assayConditions: buffer; pH 7.4; 200.0 µM
Entries and their solubility kinetic values follow.
measurementType: solubility kinetic

>  <compound>
CSCCC(NS(=O)(=O)c1ccc(C)cc1C)C(=O)Nc1cccnc1 (configuration not stated)

>  <dataValue>
> 59 µg/mL

$$$$
>  <compound>
CCc1cc2cc(C)cc(C)c2nc1Cl

>  <dataValue>
< 0.5 µg/mL

$$$$
>  <compound>
O=C(COC(=O)c1cc([N+](=O)[O-])ccc1Cl)NC1CCCC1

>  <dataValue>
> 49 µg/mL

$$$$
>  <compound>
COc1cccc(NC(=O)C(=O)NCCCN2CCCC2=O)c1

>  <dataValue>
> 47.9 µg/mL

$$$$
>  <compound>
N#C/C(=C(/O)CO/N=C/c1ccccc1Cl)c1nc2ccccc2[nH]1

>  <dataValue>
< 0.2 µg/mL

$$$$
>  <compound>
Cc1ccc(OCC(=O)N2CCN(C(=O)c3ccncc3)CC2)cc1

>  <dataValue>
> 50.9 µg/mL

$$$$
>  <compound>
O=C(Cc1ccccc1)N1CCN(c2ccccc2F)CC1

>  <dataValue>
> 44.8 µg/mL

$$$$
